// provenance: patent US8119645B2

# method description: logP by reversed-phase HPLC (EEC Directive 79/831 Annex V.A8)
# Assay type: physicochemical
# assay conditions: HPLC C18, 40° C., 0.1% aqueous formic acid / acetonitrile gradient
I'd be grateful if you could share measured LogP for these entries.
Kindly provide the number alone.

Record request: LogP value, item Cc1ccc(C(=NOCc2csc(NC(=O)C(C)C)n2)n2nnnc2C)o1
2.57

Query (compound): Cc1nnnn1C(=NOCc1csc(NC(=O)C(C)C)n1)c1ccsc1 ; field requested: LogP
2.55

What value of measured LogP is listed for Cc1ccc(C(=NOCc2csc(NC(=O)C(C)(C)C)n2)n2nnnc2C)o1 ?
2.95

Find the recorded LogP belonging to Cc1ccc(C(=NOCc2cccc(NC(=O)OCCc3ccccc3)n2)n2nnnc2C)s1 and report it.
4.02

Reported LogP for Cc1ccc(C(=NOCc2csc(NC(=O)OCCc3ccccc3)n2)n2nnnc2C)s1 : what is it?
3.88

Which LogP value is on record for CCCCCC(=O)Nc1cccc(CON=C(c2ccsc2Cl)n2nnnc2C)n1 ?
3.65

Which LogP value belongs to CCCCCNC(=O)Nc1nc(CON=C(c2ccsc2)n2nnnc2C)cs1 ?
2.99

Need LogP, item C=CCC(=O)Nc1nc(CON=C(c2ccc(Br)s2)n2nnnc2C)cs1
3.08

Which LogP value is on record for Cc1ccc(C(=NOCc2cccc(NC(=O)NCCc3ccccc3)n2)n2nnnc2C)s1 ?
3.06

Can you look up the measured LogP of Cc1nnnn1C(=NOCCc1csc(N)n1)c1ccsc1 for me?
1.16
